- Target under test: recombinant human dipeptidyl peptidase-IV (DPP4) (Homo sapiens, UniProt P27487)
- Sequence (P27487 whole entry): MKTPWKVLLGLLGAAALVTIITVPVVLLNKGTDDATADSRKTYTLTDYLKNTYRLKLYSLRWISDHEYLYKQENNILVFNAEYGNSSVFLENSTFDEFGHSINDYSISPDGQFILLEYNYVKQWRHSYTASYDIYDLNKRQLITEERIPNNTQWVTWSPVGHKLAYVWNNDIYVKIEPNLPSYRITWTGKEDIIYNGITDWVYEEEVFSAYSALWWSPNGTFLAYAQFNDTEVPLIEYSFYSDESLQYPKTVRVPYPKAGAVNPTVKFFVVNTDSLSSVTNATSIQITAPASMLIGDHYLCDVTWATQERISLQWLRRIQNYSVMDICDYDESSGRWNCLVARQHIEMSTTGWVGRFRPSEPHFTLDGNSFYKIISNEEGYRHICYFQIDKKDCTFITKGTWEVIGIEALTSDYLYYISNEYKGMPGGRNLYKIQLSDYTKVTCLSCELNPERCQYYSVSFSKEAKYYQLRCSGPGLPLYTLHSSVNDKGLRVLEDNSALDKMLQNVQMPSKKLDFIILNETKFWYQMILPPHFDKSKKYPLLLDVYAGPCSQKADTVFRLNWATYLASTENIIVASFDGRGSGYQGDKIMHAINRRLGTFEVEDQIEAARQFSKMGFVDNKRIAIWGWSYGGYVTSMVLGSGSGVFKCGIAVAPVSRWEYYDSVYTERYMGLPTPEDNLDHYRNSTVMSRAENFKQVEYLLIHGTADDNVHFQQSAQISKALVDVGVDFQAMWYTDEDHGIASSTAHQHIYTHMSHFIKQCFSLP
- Protocol text: DPP4 inhibitory activity and IC50 (GP-pNA substrate, absorbance of pNA at 405 nm)
- Cond: synthetic peptides
Where a SMILES comes first, the peptide text is derived from it.
Listing: IC50 of selected compounds

{"columns": ["Compound", "Unit spec", "IC50"],
 "data": [
  ["CSCC[C@H](N)C(=O)N1CCC[C@H]1C(=O)N[C@@H](Cc1c[nH]cn1)C(=O)N[C@@H](Cc1c[nH]c2ccccc12)C(=O)O [MW4, MPHW] (H-MPHW-OH; N-terminus assumed)", "µM", 128],
  ["CC(C)C[C@H](N)C(=O)N[C@@H](Cc1ccccc1)C(=O)N[C@@H](Cc1ccc(O)cc1)C(=O)O [LY3, LFY] (H-Leu-Phe-Tyr-OH; N-terminus assumed)", "µM", 2100]
]}

----------
- Target under test: recombinant human dipeptidyl peptidase-IV (DPP4) (Homo sapiens, UniProt P27487)
- Construct: purchased Sigma–Aldrich Co
- Protocol text: DPP4 inhibitory activity and IC50 (GP-pNA substrate, absorbance of pNA at 405 nm)
- Assay type: biochemical
- Cond: synthetic peptides at 2 mM
Where no end group is shown, it is not given here.

{"columns": ["Substance", "inhibition at 2000 µM, %"],
 "data": [
  ["VPSGAPF-OH [VF7, VPSGAPF]", 90],
  ["MLPQNF-OH [MF6, MLPQNF]", 68],
  ["RATLPF-OH [RF6, RATLPF]", 56],
  ["LFPNAGY-OH [LY7, LFPNAGY]", 71]
]}
